Readings of Nuclear localization (% of total cells) for the listed compounds
Test system: YAP/TAZ
EXPERIMENT_NOTES: YAP/TAZ nuclear localization in IPF patient-derived lung fibroblasts treated with dopaminergic agonists
Format: cell-based, human
TEST_CONTEXT: IPF-1 patient fibroblasts; 10 μM, 2 hours
Counter-ions that a name gives are not always drawn.

| COMPOUND | TARGET_SYSTEM | RESULT |
| --- | --- | --- |
| CCCN(CCC)[C@@H]1CCc2c(OC)cccc2[C@@H]1C.O=C(O)/C=C/C(=O)O [(+)-UH 232 maleate, (+)-UH 232] | YAP/TAZ | 61.9521 % of total cells |
| CCCN1CCO[C@@H]2c3cc(O)ccc3OC[C@H]21.Cl (racemic) [(±)-PD 128,907•HCl, (±)-PD 128,907] | YAP/TAZ | 60.13 % of total cells |
| NC[C@@H]1O[C@H](C23CC4CC(CC(C4)C2)C3)Cc2c1ccc(O)c2O [A-77636•HCl•H2O, A-77636] | YAP/TAZ | 26.46 % of total cells |
| Oc1cc2c(cc1O)[C@H]1c3ccccc3CN[C@@H]1CC2 (racemic) [Dihydrexidine] | YAP/TAZ | 13.22 % of total cells |

# input Requested read-out: Nuclear localization (% of total cells). Entry: `CCCN(CCC)CCc1ccc(O)c(O)c1`
# output 69.18 % of total cells

# input Next up: `Br.CCCN1CCc2cc(O)cc3c2[C@H]1Cc1ccc(O)c(O)c1-3`
# output 32.87 % of total cells

# input Next up: `Oc1cc2c(cc1O)[C@@H](c1ccccc1)CNCC2`
# output 69.5873 % of total cells

# input Next up: Br.NC1CCc2cc(O)c(O)cc2C1 (centres unmarked)
# output 43.89 % of total cells
